- Test system: PTEN-P2/GFP prostate cancer cells
- assay-comment: Effect of 1,4-naphthoquinone analogs on PTEN-P2/GFP cell proliferation (WST-1 cell viability, 24 h)
- Format: cell-based
- measurement-parameters: Mus musculus, 2.5 μM, WST-1, medium with 10% FBS and DHT, read-out: PTEN-P2/GFP cell proliferation, percent of control
measure: activity at 2.5 µM (%)
Numbers only, in %.

// below: answered molecules
O=C1C(Oc2ccc(O)cc2)=C(Oc2ccc(O)cc2)C(=O)c2ccccc21: 87.1
O=C1C=C(Oc2c(F)cc(F)cc2F)C(=O)c2ccccc21: 101

I would be grateful if you could provide activity at 2.5 µM for each of the following entries.
1. O=C1C=C(Oc2ccc([N+](=O)[O-])cc2)C(=O)c2ccccc21
2. O=C1C=C(Oc2ccc(Cl)cc2Cc2ccccc2)C(=O)c2ccccc21

A)
1. 118
2. 119

====

- System: PTEN-P2/GFP prostate cancer cells
- assay-comment: Effect of 1,4-naphthoquinone analogs on PTEN-P2/GFP cell proliferation (WST-1 cell viability, 24 h)
- Format: cell-based
- measurement-parameters: Mus musculus, 4 μM, WST-1, medium with 10% FBS and DHT, read-out: PTEN-P2/GFP cell proliferation, percent of control
measure: activity at 4 µM (%)
One number for each entry, in %.

// below: answered compounds
O=C1C=C(Oc2c(F)c(F)c(F)c(F)c2F)C(=O)c2ccccc21: 93.3
CC1=CC(=O)c2c(OCCCCI)cccc2C1=O: 102
CN(C)CCc1ccc(OC2=CC(=O)c3ccccc3C2=O)cc1: 79.2
COc1ccc(OC)c2c1C(=O)C=CC2=O: 113
Cc1cc(Cl)ccc1OC1=CC(=O)c2ccccc2C1=O: 101

--- query ---
Q) Return reported activity at 4 µM; argument: COc1cccc2c1C(=O)C=CC2=O
A) 105

====

- Tested on: PTEN-P2/GFP prostate cancer cells
- assay-comment: Effect of 1,4-naphthoquinone analogs on PTEN-P2/GFP cell proliferation (WST-1 cell viability, 24 h)
- Assay type: cell-based
- measurement-parameters: Mus musculus, 2.5 μM, WST-1, medium with 10% FBS and DHT, read-out: PTEN-P2/GFP cell proliferation, percent of control
measure: activity at 2.5 µM (%)
Numbers only, in %.

// below: answered molecules
COc1ccc(OC2=CC(=O)c3ccccc3C2=O)cc1: 113
O=C1C(Oc2c(F)cc(F)cc2F)=C(Oc2c(F)cc(F)cc2F)C(=O)c2ccccc21: 103
O=C1C=C(Oc2cc(F)cc(F)c2)C(=O)c2ccccc21: 91.8
O=C1C=C(Oc2ccc(Cl)cc2)C(=O)c2ccccc21: 92.3
COc1ccc(OC2=CC(=O)c3ccccc3C2=O)c(Cl)c1: 97
O=C1C=C(Oc2ccc(OCc3ccccc3)cc2)C(=O)c2ccccc21: 99.8
Cc1cc(OC2=CC(=O)c3ccccc3C2=O)ccc1Cl: 89

--- query ---
Q) Return reported activity at 2.5 µM; argument: O=C1C=C(Oc2ccc3ccccc3c2)C(=O)c2ccccc21
A) 114

====

- Test system: PTEN-P2/GFP prostate cancer cells
- assay-comment: Effect of 1,4-naphthoquinone analogs on PTEN-P2/GFP cell proliferation (WST-1 cell viability, 24 h)
- Type: cell-based
- measurement-parameters: Mus musculus, 4 μM, WST-1, medium with 10% FBS and DHT, read-out: PTEN-P2/GFP cell proliferation, percent of control
measure: activity at 4 µM (%)
Numbers only, in %.

// below: answered compounds
O=C1C=C(Oc2ccccc2)C(=O)c2ccccc21: 63.4
Cc1cccc(OC2=CC(=O)c3ccccc3C2=O)c1: 99.4
O=C1C(Br)=C(Oc2ccc(OC3=C(Br)C(=O)c4ccccc4C3=O)cc2)C(=O)c2ccccc21: 98.6
CC(=O)NC1=C(Cl)C(=O)c2ccccc2C1=O: 86.6
CC(=O)NC1=C(Oc2ccc(OC3=C(NC(C)=O)C(=O)c4ccccc4C3=O)cc2)C(=O)c2ccccc2C1=O: 69

I would be grateful if you could provide activity at 4 µM for each of the following entries.
1. CC(=O)NC1=C(Oc2ccccc2)C(=O)c2ccccc2C1=O
2. CCOC1=CC(=O)c2ccccc2C1=O
3. CC(=O)NC1=C(Oc2ccc(Cl)cc2)C(=O)c2ccccc2C1=O

A)
71.7
93.2
70.6

====

Please provide measured activity at 1.2 µM for the entries that follow.
- Test system: PTEN-P2/GFP prostate cancer cells
- assay-comment: Effect of 1,4-naphthoquinone analogs on PTEN-P2/GFP cell proliferation (WST-1 cell viability, 24 h)
- Assay type: cell-based
- measurement-parameters: Mus musculus, 1.2 μM, WST-1, medium with 10% FBS and DHT, read-out: PTEN-P2/GFP cell proliferation, percent of control
I'd appreciate it if you wrote the number followed by its unit.

// below: answered compounds
O=C1C=C(Oc2ccc3ccccc3c2)C(=O)c2ccccc21: 117%
O=C1C=C(Oc2c(F)cc(F)cc2F)C(=O)c2ccccc21: 101%
Cc1cc(OC2=CC(=O)c3ccccc3C2=O)ccc1Cl: 95.6%
O=C1C=C(Oc2ccc(Cl)cc2)C(=O)c2ccccc21: 100%

Q) For the record COc1ccc(OC2=CC(=O)c3ccccc3C2=O)c(Cl)c1 , what value of activity at 1.2 µM is listed for PTEN-P2/GFP prostate cancer cells?
A) 92.8%
